system: A375 multi-cell spheroids with HUVEC/MSC, viability; experiment: Anticancer human tumor A375 cell line growth inhibition [GQUAD]; settings: second compound 0.316 µM; first compound 3.16 µM; hits give low values;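 note: spheroids exposed to compounds for seven days before readout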
Recorded Metric: viability, T/C (%)
Answers are plain numbers, in %.

{"Molecule": "CC1COCCN1c1cc(-c2ccnn2C)c2ccnc(-c3ccn[nH]3)c2n1 (stereo not given) + Cc1[nH]c2ccc(F)cc2c1-c1nc2c3cccnc3c3ncccc3c2[nH]1", "Recorded Metric": "viability, T/C", "Result Units": "%", "Numeric Readout": 13.5}
{"Molecule": "CC1COCCN1c1cc(C2(O)CC3CCC(C2)O3)c2cnn(-c3ccn[nH]3)c2n1 (stereo not given) + CN(C)c1ccc(Nc2c3ccc(NC(=O)CCN4CCCC4)cc3nc3cc(NC(=O)CCN4CCCC4)ccc23)cc1", "Recorded Metric": "viability, T/C", "Result Units": "%", "Numeric Readout": 10.9}
{"Molecule": "C#Cc1c(F)ccc2cc(O)cc(-c3ncc4c(N5CC6CCC(C5)N6)nc(OCC56CCCN5CC(F)C6)nc4c3F)c12 (stereo not given) + CN(C)c1ccc(Nc2c3ccc(NC(=O)CCN4CCCC4)cc3nc3cc(NC(=O)CCN4CCCC4)ccc23)cc1", "Recorded Metric": "viability, T/C", "Result Units": "%", "Numeric Readout": 102}
{"Molecule": "Nc1ccn(C2OC(CO)C(O)C2(F)F)c(=O)n1 (stereo not given) + Cc1cnc(CNC(=O)c2c(=O)c3ccc(N4CCCN(C)CC4)nc3n3c2sc2ccccc23)cn1", "Recorded Metric": "viability, T/C", "Result Units": "%", "Numeric Readout": 10}

Moving on to the next molecule.
Problem: Can you share its viability, T/C? I mean this molecule: CC(C)n1c(=O)n(C)c2cnc3cc(F)c(-c4ccc(OCCCN5CCCCC5)nc4)cc3c21 + Cc1[nH]c2ccc(F)cc2c1-c1nc2c3cccnc3c3ncccc3c2[nH]1
Result: 106

----------
Could you please report measured viability, T/C for the items listed next?
tested on: A375 multi-cell spheroids with HUVEC/MSC, viability; experiment: Anticancer human tumor A375 cell line growth inhibition [GQUAD]; conditions: second compound 0.0316 µM; first compound 0.0999 µM; hits give low values;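 note: spheroids exposed to compounds for seven days before readout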
Answers are plain numbers, in %.

The cases that follow already have their viability, T/C on record.
{"Compound": "Cn1ncnc1[C@H]1c2n[nH]c(=O)c3cc(F)cc(c23)N[C@@H]1c1ccc(F)cc1 + Cc1[nH]c2ccc(F)cc2c1-c1nc2c3cccnc3c3ncccc3c2[nH]1", "viability, T/C (%)": 104}
{"Compound": "CC[C@@]1(O)C(=O)OCc2c1cc1n(c2=O)Cc2cc3c(CN(C)C)c(O)ccc3nc2-1 + Cc1cnc(CNC(=O)c2c(=O)c3ccc(N4CCCN(C)CC4)nc3n3c2sc2ccccc23)cn1", "viability, T/C (%)": 17.8}
{"Compound": "CC[C@@]1(O)C(=O)OCc2c1cc1n(c2=O)Cc2cc3c(CN(C)C)c(O)ccc3nc2-1 + CN(C)c1ccc(Nc2c3ccc(NC(=O)CCN4CCCC4)cc3nc3cc(NC(=O)CCN4CCCC4)ccc23)cc1", "viability, T/C (%)": 18.5}

Moving on to the next compound.
Problem: Can you share its viability, T/C? I mean this compound: Cc1[nH]c2ccccc2c1CCNCc1ccc(/C=C/C(=O)NO)cc1 + CN(C)c1ccc(Nc2c3ccc(NC(=O)CCN4CCCC4)cc3nc3cc(NC(=O)CCN4CCCC4)ccc23)cc1
Result: 76
